Source listed as patent US6919086B1.

test system: IgE antibodies of allergic patients; test: EAST inhibition test (IgE reactivity / allergenicity); type: binding, human; details: allergic patient serum pool We 6/97
Inhibition value 25% (concentration of the inhibitor at 25% inhibition): recorded values
All answers are understood in mol/L, so give the number only.

Solved entries:
[
  {
    "molecule": "DM1: deletion mutant of rPhl p 5b (ΔK50-P132, D49→L), SEQ ID NO 91 (protein) ADAGYAPATPAAAGAAAGKATTEEQKLIEDINVGFKAAVAAAASVPAALAGELQIIDKIDAAFKVAATAAATAPADDKFTVFEAAFNKAIKESTGGAYDTYKCIPSLEAAVKQAYAATVAAAPQVKYAVFEAALTKAITAMSEVQKVSQPATGAATVAAGAATTAAGAASGAATVAAGGYKV",
    "endpoint unit": "mol/L",
    "number": "2.3e-08"
  },
  {
    "molecule": "rPhl p 5b deletion mutant DM3 (deletion A154-T177, A220T) (protein) ADAGYAPATPAAAGAAAGKATTEEQKLIEDINVGFKAAVAAAASVPAADKFKTFEAAFTSSSKAAAAKAPGLVPKLDAAYSVAYKAAVGATPEAKFDSFVASLTEALRVIAGALEVHAVKPVTEEPGMAKIPAGELQIIDKIDAAFKVAATAAGGAYDTYKCIPSLEAAVKQAYAATVAAAPQVKYAVFEAALTKTITAMSEVQKVSQPATGAATVAAGAATTAAGAASGAATVAAGGYKV",
    "endpoint unit": "mol/L",
    "number": "5.1e-09"
  },
  {
    "molecule": "rPhl p 5b point mutant PM3 (A13C) (protein) ADAGYAPATPAACGAAAGKATTEEQKLIEDINVGFKAAVAAAASVPAADKFKTFEAAFTSSSKAAAAKAPGLVPKLDAAYSVAYKAAVGATPEAKFDSFVASLTEALRVIAGALEVHAVKPVTEEPGMAKIPAGELQIIDKIDAAFKVAATAAATAPADDKFTVFEAAFNKAIKESTGGAYDTYKCIPSLEAAVKQAYAATVAAAPQVKYAVFEAALTKAITAMSEVQKVSQPATGAATVAAGAATTAAGAASGAATVAAGGYKV",
    "endpoint unit": "mol/L",
    "number": "8.3e-10"
  },
  {
    "molecule": "r Phl p 5b: recombinant wild type Phl p 5b, 265 amino acids, SEQ ID NO 87 (protein) ADAGYAPATPAAAGAAAGKATTEEQKLIEDINVGFKAAVAAAASVPAADKFKTFEAAFTSSSKAAAAKAPGLVPKLDAAYSVAYKAAVGATPEAKFDSFVASLTEALRVIAGALEVHAVKPVTEEPGMAKIPAGELQIIDKIDAAFKVAATAAATAPADDKFTVFEAAFNKAIKESTGGAYDTYKCIPSLEAAVKQAYAATVAAAPQVKYAVFEAALTKAITAMSEVQKVSQPATGAATVAAGAATTAAGAASGAATVAAGGYKV",
    "endpoint unit": "mol/L",
    "number": "3e-10"
  },
  {
    "molecule": "rPhl p 5b point mutant PM1 (N32D, D49L, K50A) (protein) ADAGYAPATPAAAGAAAGKATTEEQKLIEDIDVGFKAAVAAAASVPAALAFKTFEAAFTSSSKAAAAKAPGLVPKLDAAYSVAYKAAVGATPEAKFDSFVASLTEALRVIAGALEVHAVKPVTEEPGMAKIPAGELQIIDKIDAAFKVAATAAATAPADDKFTVFEAAFNKAIKESTGGAYDTYKCIPSLEAAVKQAYAATVAAAPQVKYAVFEAALTKAITAMSEVQKVSQPATGAATVAAGAATTAAGAASGAATVAAGGYKV",
    "endpoint unit": "mol/L",
    "number": "1.2e-09"
  }
]

Below: the item to evaluate.
[in] Query (molecule): n Phl p 5b: purified natural allergen Phl p 5b of timothy grass (Phleum pratense), reference of the EAST inhibition (protein) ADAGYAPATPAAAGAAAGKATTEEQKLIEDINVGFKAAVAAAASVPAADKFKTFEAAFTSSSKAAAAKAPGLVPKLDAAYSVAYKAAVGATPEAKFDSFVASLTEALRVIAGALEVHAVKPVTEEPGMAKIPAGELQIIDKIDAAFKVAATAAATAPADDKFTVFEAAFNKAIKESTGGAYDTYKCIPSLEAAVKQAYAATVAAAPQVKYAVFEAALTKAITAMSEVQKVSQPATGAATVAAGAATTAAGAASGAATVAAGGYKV ; field requested: Inhibition value 25% (concentration of the inhibitor at 25% inhibition)
[out] 5.1e-10
